# System: IGROV1 complex spheroids (HUVEC, MSC), viability % test/control
# test_name: Anticancer human tumor IGROV1 cell line growth inhibition [GQUAD]; active = viability on the fitted dose curve at most 10% of control; inactive = the rest;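 note: spheroids exposed to compounds for 7 days before readout; 100% = DMSO vehicle control viability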
# study_conditions: second compound 0.1 µM; first compound 0.316 µM
# Text: DNA G-quadruplex Stabilizer Agents in Combinations in Complex Spheroids A high-throughput screen of multi-cell type tumor spheroids was designed to identify active combinations of DNA G-quadruplex stabilizer agents and targeted small molecules. […] Compounds. […] If the clinical Cmax for an agent had not been determined, the highest concentration tested was 10 microM. […]
Lab note: assign the record to one of 1.0 (active), 0.0 (inactive)

Challenge: Per the assay record, what outcome was assigned to CC(=O)O[C@H]1C(=O)[C@@]2(C)[C@H]([C@H](OC(=O)c3ccccc3)[C@]3(O)C[C@H](OC(=O)[C@H](O)[C@@H](NC(=O)c4ccccc4)c4ccccc4)C(C)=C1C3(C)C)[C@]1(OC(C)=O)CO[C@@H]1C[C@@H]2O + Cc1[nH]c2ccc(F)cc2c1-c1nc2c3cccnc3c3ncccc3c2[nH]1 ?
Response given: 1.0

Challenge: Per the assay record, what outcome was assigned to COc1cc(C2c3cc4c(cc3C(OC3OC5COC(C)OC5C(O)C3O)C3COC(=O)C23)OCO4)cc(OC)c1O (stereo not given) + CN(C)c1ccc(Nc2c3ccc(NC(=O)CCN4CCCC4)cc3nc3cc(NC(=O)CCN4CCCC4)ccc23)cc1 ?
Response given: 0.0

Challenge: Per the assay record, what outcome was assigned to CCCS(=O)(=O)Nc1ccc(F)c(C(=O)c2c[nH]c3ncc(-c4ccc(Cl)cc4)cc23)c1F + Cc1cnc(CNC(=O)c2c(=O)c3ccc(N4CCCN(C)CC4)nc3n3c2sc2ccccc23)cn1 ?
Response given: 0.0

Challenge: Per the assay record, what outcome was assigned to CCc1c2c(nc3ccc(O)cc13)-c1cc3c(c(=O)n1C2)COC(=O)[C@]3(O)CC + Cc1cnc(CNC(=O)c2c(=O)c3ccc(N4CCCN(C)CC4)nc3n3c2sc2ccccc23)cn1 ?
Response given: 1.0

Challenge: Per the assay record, what outcome was assigned to CC(C)n1c(=O)n(C)c2cnc3cc(F)c(-c4ccc(OCCCN5CCCCC5)nc4)cc3c21 + Cc1[nH]c2ccc(F)cc2c1-c1nc2c3cccnc3c3ncccc3c2[nH]1 ?
Response given: 0.0
